biological target: KIT L576p (Homo sapiens, UniProt P10721, L576P); test: KIT auto-phosphorylation in transformed BaF3 cells; settings: EC50 pY703 auto-phosphorylation, 2h
Sequence (P10721 26-976 L576P): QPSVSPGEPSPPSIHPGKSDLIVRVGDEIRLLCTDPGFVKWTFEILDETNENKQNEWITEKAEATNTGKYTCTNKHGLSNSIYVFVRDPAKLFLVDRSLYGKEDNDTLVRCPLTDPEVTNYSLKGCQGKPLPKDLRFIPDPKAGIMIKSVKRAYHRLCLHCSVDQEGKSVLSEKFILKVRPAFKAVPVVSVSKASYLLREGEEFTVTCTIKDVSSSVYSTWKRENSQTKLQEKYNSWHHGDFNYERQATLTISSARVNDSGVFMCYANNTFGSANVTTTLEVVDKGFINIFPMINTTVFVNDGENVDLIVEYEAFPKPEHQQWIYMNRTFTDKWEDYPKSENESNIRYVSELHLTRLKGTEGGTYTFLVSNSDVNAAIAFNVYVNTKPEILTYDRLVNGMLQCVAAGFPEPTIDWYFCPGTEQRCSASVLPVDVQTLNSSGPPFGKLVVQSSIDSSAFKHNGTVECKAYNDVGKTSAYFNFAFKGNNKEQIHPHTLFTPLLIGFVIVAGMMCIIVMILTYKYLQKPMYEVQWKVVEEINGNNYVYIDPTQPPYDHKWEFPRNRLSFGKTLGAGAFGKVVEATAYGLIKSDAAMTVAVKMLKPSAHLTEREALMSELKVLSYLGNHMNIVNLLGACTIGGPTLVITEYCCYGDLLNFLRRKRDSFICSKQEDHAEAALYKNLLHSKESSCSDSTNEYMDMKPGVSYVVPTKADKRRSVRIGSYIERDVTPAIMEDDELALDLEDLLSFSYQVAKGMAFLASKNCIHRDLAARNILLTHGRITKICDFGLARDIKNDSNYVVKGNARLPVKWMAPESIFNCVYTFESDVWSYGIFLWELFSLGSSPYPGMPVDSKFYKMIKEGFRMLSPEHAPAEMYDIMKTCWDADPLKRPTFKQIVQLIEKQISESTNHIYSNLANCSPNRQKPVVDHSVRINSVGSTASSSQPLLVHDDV
assay-readout: EC50

Reported EC50, compound COc1cc(C(=O)NCC(=O)Nc2ccc3c(/C=C/c4ccccn4)n[nH]c3c2)cc(OC)c1OC : ____
> 10 µM

###

molecular target: KIT V559D (Homo sapiens, UniProt P10721, V559D); assay: KIT auto-phosphorylation in transformed BaF3 cells; conditions: EC50 pY703 auto-phosphorylation, 2h
Sequence (P10721 546-976 V559D): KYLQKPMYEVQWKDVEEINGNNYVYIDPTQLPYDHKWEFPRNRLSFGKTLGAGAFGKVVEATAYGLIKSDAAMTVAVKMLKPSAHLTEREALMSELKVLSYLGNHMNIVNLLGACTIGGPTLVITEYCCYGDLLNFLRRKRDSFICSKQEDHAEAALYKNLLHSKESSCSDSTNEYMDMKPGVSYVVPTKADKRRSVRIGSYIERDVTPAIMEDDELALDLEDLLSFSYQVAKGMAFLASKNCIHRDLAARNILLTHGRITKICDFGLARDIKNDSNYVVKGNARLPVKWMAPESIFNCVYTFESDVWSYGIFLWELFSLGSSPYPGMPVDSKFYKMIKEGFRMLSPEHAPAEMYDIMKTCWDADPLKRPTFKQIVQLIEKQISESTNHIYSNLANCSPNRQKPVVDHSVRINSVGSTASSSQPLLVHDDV
assay-readout: EC50 (nM)
Please give a number only; it is taken to be in nM.

Reported EC50, compound COc1cc(C(=O)NCC(=O)Nc2ccc3c(/C=C/c4ccccn4)n[nH]c3c2)cc(OC)c1OC : ____
151
